- Test system: Giardia intestinalis
- Assay Text: Antigiardial activity against Giardia lamblia P1 incubated for 48 hrs by haemocytometric counting method
- Format: functional, organism-based
- Condition Info: Giardia duodenalis, P1, 48 h
Value Kind: IC50 (nM)

INSERT INTO assay_data (entry_smiles, unit, reported_measurement) VALUES
  ('COC(=O)Nc1nc2ccc(C(=O)c3ccccc3)cc2[nH]1', 'nM', 60);

###

- Test system: Giardia intestinalis
- Assay Text: Antigiardial activity against Giardia lamblia WB (ATCC 30957) incubated for 3 days by [3H]thymidine incorporation based assay
- Type: functional, organism-based
- Condition Info: Giardia duodenalis
Value Kind: IC50 (nM)

INSERT INTO measurements (entry_smiles, reported_measurement) VALUES
  ('CCS(=O)(=O)CCn1c([N+](=O)[O-])cnc1C', 300),
  ('Cc1ncc([N+](=O)[O-])n1CCO', 500);
